Value source: ChEMBL document CHEMBL4368939

target: Tryptophan 2,3-dioxygenase (Homo sapiens); assay: Inhibition of human TDO expressed in Escherichia coli at using L-tryptophan as substrate after 1 hr by UV absorption analysis
Sequence (P48775 whole entry): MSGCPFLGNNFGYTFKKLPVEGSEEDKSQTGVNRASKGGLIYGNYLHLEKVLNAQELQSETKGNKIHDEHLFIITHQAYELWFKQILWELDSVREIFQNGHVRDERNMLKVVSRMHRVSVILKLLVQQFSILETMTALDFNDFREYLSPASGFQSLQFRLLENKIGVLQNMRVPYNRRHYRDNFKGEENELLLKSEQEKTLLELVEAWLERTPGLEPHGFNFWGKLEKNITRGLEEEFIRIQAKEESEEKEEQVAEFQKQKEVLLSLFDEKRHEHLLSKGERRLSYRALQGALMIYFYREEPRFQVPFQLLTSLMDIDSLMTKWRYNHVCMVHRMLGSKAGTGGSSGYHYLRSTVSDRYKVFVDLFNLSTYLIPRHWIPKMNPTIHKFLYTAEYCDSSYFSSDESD
pIC50: −log10 of the molar value.
Attribute Measured: pIC50

>  <Item Smiles>
Brc1cc(NCc2cccc3nonc23)c2cn[nH]c2c1

>  <Observed Measurement>
5.53

$$$$

----------
molecular target: Indoleamine 2,3-dioxygenase 1 (Homo sapiens); experiment: Inhibition of human IDO1 expressed in Escherichia coli at 10 uM using L-tryptophan as substrate after 1 hr by UV absorption analysis
Sequence (P14902 whole entry, looked up): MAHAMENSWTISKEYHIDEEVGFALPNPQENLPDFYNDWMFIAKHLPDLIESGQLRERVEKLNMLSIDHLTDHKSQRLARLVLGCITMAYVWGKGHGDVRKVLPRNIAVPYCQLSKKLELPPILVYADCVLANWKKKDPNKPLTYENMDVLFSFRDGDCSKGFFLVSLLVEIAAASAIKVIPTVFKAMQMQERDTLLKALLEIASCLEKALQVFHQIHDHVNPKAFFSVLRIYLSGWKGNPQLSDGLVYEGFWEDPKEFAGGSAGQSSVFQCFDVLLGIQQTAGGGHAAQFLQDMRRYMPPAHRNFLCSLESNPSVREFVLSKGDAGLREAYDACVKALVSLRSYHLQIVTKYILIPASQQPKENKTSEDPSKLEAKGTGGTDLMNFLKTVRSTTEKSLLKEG
Calls of active or inactive are those of the source. No cut-off for these calls is given here.
Attribute Measured: inhibition

>  <Compound>
CC(=O)Nc1ccc(CNc2cc(Br)cc3[nH]ncc23)cc1

>  <Attribute Measured>
inhibition

>  <Observed Measurement>
48%

$$$$
>  <Compound>
Nc1cc(CNc2cc(Br)cc3[nH]ncc23)ccc1O

>  <Attribute Measured>
inhibition

>  <Observed Measurement>
32%

$$$$
>  <Compound>
Oc1ccc(CNc2cc(Br)cc3[nH]ncc23)cc1F

>  <Attribute Measured>
inhibition

>  <Observed Measurement>
52%

$$$$
>  <Compound>
Nc1nc(CNc2cc(Br)cc3[nH]ncc23)cs1

>  <Attribute Measured>
inhibition

>  <Observed Measurement>
inactive

$$$$
>  <Compound>
ONc1cccc(CNc2cc(Br)cc3[nH]ncc23)c1

>  <Attribute Measured>
inhibition

>  <Observed Measurement>
53%

$$$$
>  <Compound>
Oc1ccc(CNc2cc(Br)cc3[nH]ncc23)cc1Cl

>  <Attribute Measured>
inhibition

>  <Observed Measurement>
60%

$$$$
>  <Compound>
O=C(Nc1ccc(CCNc2cc(Br)cc3[nH]ncc23)cc1)NC1CCOCC1

>  <Attribute Measured>
inhibition

>  <Observed Measurement>
inactive

$$$$
>  <Compound>
Brc1cc(NCc2ccc3c(c2)OCO3)c2cn[nH]c2c1

>  <Attribute Measured>
inhibition

>  <Observed Measurement>
68%

$$$$
>  <Compound>
OC1CCCC(Nc2cccc(CNc3cc(Br)cc4[nH]ncc34)c2)C1 (stereo not drawn)

>  <Attribute Measured>
inhibition

>  <Observed Measurement>
52%

$$$$
>  <Compound>
Oc1ccc(CNc2cc(Br)cc3[nH]ncc23)c(O)c1

>  <Attribute Measured>
inhibition

>  <Observed Measurement>
40%

$$$$
>  <Compound>
Brc1cc(NCc2ccco2)c2cn[nH]c2c1

>  <Attribute Measured>
inhibition

>  <Observed Measurement>
29%

$$$$
>  <Compound>
CC(C)Nc1cc(Br)cc2[nH]ncc12

>  <Attribute Measured>
inhibition

>  <Observed Measurement>
47%

$$$$
>  <Compound>
ONc1ccc(CNc2cc(Br)cc3[nH]ncc23)cc1

>  <Attribute Measured>
inhibition

>  <Observed Measurement>
inactive

$$$$
>  <Compound>
O=C(O)CNc1cccc(CNc2cc(Br)cc3[nH]ncc23)c1

>  <Attribute Measured>
inhibition

>  <Observed Measurement>
57%

$$$$
>  <Compound>
Nc1ccc(CNc2cc(Br)cc3[nH]ncc23)cc1

>  <Attribute Measured>
inhibition

>  <Observed Measurement>
3%

$$$$
>  <Compound>
O=C1CCCC(Nc2cccc(CNc3cc(Br)cc4[nH]ncc34)c2)C1 (stereo not drawn)

>  <Attribute Measured>
inhibition

>  <Observed Measurement>
52%

$$$$
>  <Compound>
N#Cc1ccc(CNc2cc(Br)cc3[nH]ncc23)cc1

>  <Attribute Measured>
inhibition

>  <Observed Measurement>
70%

$$$$
>  <Compound>
NS(=O)(=O)c1ccc(CNc2cc(Br)cc3[nH]ncc23)cc1

>  <Attribute Measured>
inhibition

>  <Observed Measurement>
20%

$$$$
>  <Compound>
CC(Nc1cc(Br)cc2[nH]ncc12)c1ccccc1 (stereo not drawn)

>  <Attribute Measured>
inhibition

>  <Observed Measurement>
14%

$$$$
>  <Compound>
Brc1cc(NCc2cccc3sccc23)c2cn[nH]c2c1

>  <Attribute Measured>
inhibition

>  <Observed Measurement>
3%

$$$$
>  <Compound>
CC(Nc1cc(Br)cc2[nH]ncc12)c1ccc([N+](=O)[O-])cc1 (stereo not drawn)

>  <Attribute Measured>
inhibition

>  <Observed Measurement>
17%

$$$$
>  <Compound>
Brc1cc(NCc2ccncc2)c2cn[nH]c2c1

>  <Attribute Measured>
inhibition

>  <Observed Measurement>
54%

$$$$
>  <Compound>
Brc1cc(NCc2cnc[nH]2)c2cn[nH]c2c1

>  <Attribute Measured>
inhibition

>  <Observed Measurement>
16%

$$$$
>  <Compound>
Nc1ccc(CCNc2cc(Br)cc3[nH]ncc23)cc1

>  <Attribute Measured>
inhibition

>  <Observed Measurement>
2%

$$$$
>  <Compound>
Nc1cccc(CNc2cc(Br)cc3[nH]ncc23)c1

>  <Attribute Measured>
inhibition

>  <Observed Measurement>
31%

$$$$
>  <Compound>
CCOC(=O)CNc1cccc(CNc2cc(Br)cc3[nH]ncc23)c1

>  <Attribute Measured>
inhibition

>  <Observed Measurement>
29%

$$$$
>  <Compound>
Oc1ccc(CNc2cc(Br)cc3[nH]ncc23)cc1O

>  <Attribute Measured>
inhibition

>  <Observed Measurement>
50%

$$$$
>  <Compound>
Nc1ccc2ccccc2c1CNc1cc(Br)cc2[nH]ncc12

>  <Attribute Measured>
inhibition

>  <Observed Measurement>
15%

$$$$
>  <Compound>
Cc1cc(O)ccc1CNc1cc(Br)cc2[nH]ncc12

>  <Attribute Measured>
inhibition

>  <Observed Measurement>
60%

$$$$
>  <Compound>
OCc1ccc(CNc2cc(Br)cc3[nH]ncc23)cc1

>  <Attribute Measured>
inhibition

>  <Observed Measurement>
45%

$$$$
>  <Compound>
Nc1ccccc1CC(=O)Nc1ccc(CCNc2cc(Br)cc3[nH]ncc23)cc1

>  <Attribute Measured>
inhibition

>  <Observed Measurement>
3%

$$$$
>  <Compound>
Nc1ccccc1CNc1cc(Br)cc2[nH]ncc12

>  <Attribute Measured>
inhibition

>  <Observed Measurement>
36%

$$$$
>  <Compound>
Cc1cc(CNc2cc(Br)cc3[nH]ncc23)ccc1O

>  <Attribute Measured>
inhibition

>  <Observed Measurement>
28%

$$$$
>  <Compound>
Brc1cc(NCc2cccs2)c2cn[nH]c2c1

>  <Attribute Measured>
inhibition

>  <Observed Measurement>
54%

$$$$
>  <Compound>
Brc1cc(NCc2cccc3nonc23)c2cn[nH]c2c1

>  <Attribute Measured>
inhibition

>  <Observed Measurement>
91%

$$$$
>  <Compound>
Oc1ccc(CNc2cc(Br)cc3[nH]ncc23)c(F)c1

>  <Attribute Measured>
inhibition

>  <Observed Measurement>
69%

$$$$
>  <Compound>
Oc1cccc(CNc2cc(Br)cc3[nH]ncc23)c1

>  <Attribute Measured>
inhibition

>  <Observed Measurement>
45%

$$$$
>  <Compound>
FC(F)(F)c1cccc(CNc2cc(Br)cc3[nH]ncc23)c1

>  <Attribute Measured>
inhibition

>  <Observed Measurement>
16%

$$$$
